# target.of.assay: PPARγ LBD / NCoR1 corepressor peptide (Homo sapiens)
# Construct: residues 203–477 (isoform 1 numbering) with a TEV-cleavable N-terminal hexa-his-tag
# assay.info: TR-FRET coregulator interaction assay, NCoR1 corepressor peptide
# test.conditions: 4 nM 6xHis-PPARγ LBD, 400 nM FITC-NCoR1 peptide, 1 h at 25 °C, n = 3; read-out: NCoR1 TR-FRET EC50 (increase in NCoR1 peptide interaction)
pEC50: −log10 of the molar value.
recorded.endpoint: pEC50

compound	pEC50
N#Cc1ccc(NC(=O)c2cc([N+](=O)[O-])ccc2Cl)cn1 [SR33068]	7.77

[I] O=C(Nc1ccccc1)c1cc([N+](=O)[O-])ccc1Cl [GW9662]
[II] CS(=O)(=O)c1ccc(C#N)cc1-c1cc(=O)c2c(F)cc(F)cc2[nH]1 [FX-909]
Task item: Kindly identify which of I and II has the larger recorded pEC50 value. Kindly give the label for the entry you pick.
Reply: I
(I: 7.77, II: 7.48)

----------
# target.of.assay: full-length human PPARγ (isoform 2) (Homo sapiens)
# Construct: full-length human PPARγ (isoform 2) expression plasmid
# assay.info: Transcriptional reporter assay (3xPPRE-luciferase) in HEK293T cells transfected with full-length PPARγ
# test.conditions: full-length PPARγ + 3xPPRE-luciferase, 18 h treatment, n = 4, three-parameter fit, read-out: cellular IC50 (decrease in PPARγ-mediated transcription)
recorded.endpoint: IC50 (nM)

cpd.smiles	target.of.assay	IC50 (nM)
N#Cc1ccc(NC(=O)c2cc([N+](=O)[O-])ccc2Cl)cn1	full-length human PPARγ (isoform 2) (Homo sapiens)	1.58
CS(=O)(=O)c1ccc(C#N)cc1-c1cc(=O)c2c(F)cc(F)cc2[nH]1	full-length human PPARγ (isoform 2) (Homo sapiens)	1.31

----------
# target.of.assay: PPARγ LBD / TRAP220/MED1 coactivator peptide (Homo sapiens)
# Construct: residues 203–477 (isoform 1 numbering) with a TEV-cleavable N-terminal hexa-his-tag; made in house; host or cells: Escherichia coli BL21(DE3), pET46 plasmid
# Sequence (P37231 203-477 isoform P37231-2): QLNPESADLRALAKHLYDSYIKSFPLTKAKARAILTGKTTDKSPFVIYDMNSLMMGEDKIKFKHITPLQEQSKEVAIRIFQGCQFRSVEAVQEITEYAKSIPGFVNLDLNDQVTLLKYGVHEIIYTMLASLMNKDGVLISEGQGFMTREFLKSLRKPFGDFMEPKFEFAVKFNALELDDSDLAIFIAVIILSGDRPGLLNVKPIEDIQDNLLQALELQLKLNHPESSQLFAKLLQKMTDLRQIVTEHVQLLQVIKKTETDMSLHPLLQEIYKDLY
# assay.info: TR-FRET coregulator interaction assay, TRAP220/MED1 coactivator peptide
# Format: biochemical
# test.conditions: 4 nM 6xHis-PPARγ LBD, 400 nM FITC-TRAP220/MED1 peptide, 1 h at 25 °C, n = 3; read-out: MED1 TR-FRET IC50 (decrease in TRAP220/MED1 peptide interaction)
pIC50: −log10 of the molar value.
recorded.endpoint: pIC50

[1] CS(=O)(=O)c1ccc(C#N)cc1-c1cc(=O)c2c(F)cc(F)cc2[nH]1
[2] N#Cc1ccc(NC(=O)c2cc([N+](=O)[O-])ccc2Cl)cn1
Task item: Returns: the label, 1 or 2 , whose recorded pIC50 is the lower number. Respond using the label that marks the chosen record.
Reply: 1
(1: 7.80, 2: 8.30)

Entry source: paper PMC12406200
